- study_target: T1, Sla1-3, P32790
- T1 sequence (P32790 344-424, looked up): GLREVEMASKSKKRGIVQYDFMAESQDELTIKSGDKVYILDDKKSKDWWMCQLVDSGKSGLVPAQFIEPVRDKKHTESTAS
- method_description: SPOT array
- condition_summary: median of control spots 5475
Kindly supply the reported SPOT intensity values for the records listed here.
Could you keep your reply to the number by itself?

What value of measured SPOT intensity is listed for PLQSKIPMLPSRRTM ?
0

Find the recorded SPOT intensity belonging to LYEAMPPTLPHRDWK and report it.
0

Any idea what its SPOT intensity is? The binder is IVNKPLPPLPVAGSS
0

Which SPOT intensity is reported for this binder? AATTSTPPLPRRRAT
0

Form field: reported SPOT intensity of KDKKTKPTPPPKPSH
0

What value of SPOT intensity has been recorded for this entry: SLSRRRFSLPSMPNV
388

Query (binder): SPLGAPPPPPHKDHL ; field requested: SPOT intensity
0

For the binder PLRRTVMSLPGNHDI , what SPOT intensity is on record?
0

Which SPOT intensity value is on record for FTLPPPPPPPGLDEL ?
0

Form field: reported SPOT intensity of NAGIRPKFILALNDE
2

Value lookup for SPOT intensity; key = NLKKRPPTAPQRKIS
161

Which SPOT intensity reading was recorded for the binder FVLRYYILIPHEQWD ?
3

Given the binder YYNRQELALPKRMSS , what is its reported SPOT intensity?
7

Please give the measured SPOT intensity for this binder: STPQTMRQAPKRPDA
2

Could you tell me which SPOT intensity is on file for GDHPKGPPPPPPPPD ?
0
